Entry source: patent US9908919B2

Listing: hAPJ Ca^2+ Flux EC50 of selected binders
Molecular target: T1, human APJ receptor (hAPJ) (human, UniProt P35414 1-380)
T1 sequence (looked up): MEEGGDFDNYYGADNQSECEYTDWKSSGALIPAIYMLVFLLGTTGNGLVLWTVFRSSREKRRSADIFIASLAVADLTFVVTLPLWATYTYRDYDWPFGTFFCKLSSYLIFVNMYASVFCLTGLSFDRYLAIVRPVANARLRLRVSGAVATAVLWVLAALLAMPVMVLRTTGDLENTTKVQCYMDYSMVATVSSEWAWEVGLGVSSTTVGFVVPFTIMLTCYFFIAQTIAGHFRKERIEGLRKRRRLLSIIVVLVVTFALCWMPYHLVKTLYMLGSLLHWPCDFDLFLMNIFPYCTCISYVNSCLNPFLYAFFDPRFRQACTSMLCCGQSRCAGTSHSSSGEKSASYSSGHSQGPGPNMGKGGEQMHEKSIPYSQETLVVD
Test: cell-based or functional assay
Bridges are numbered along the chain shown (N, C = ends). [ ]: non-standard residue; d: D form. pGlu = O=C1CC[C@@H](C(=O)O)N1; dNle = CCCC[C@@H](N)C(=O)O
Value expressed in µM; do not type the unit.

Illustrative cases are given below, each with its answer.
{"binder": "[pGlu]RCRLCHKGP[dNle]-{NH‑phenethyl} (disulfide 3-6) [Example 3: pE-R-C*-R-L-C*-H-K-G-P-(D-Nle)-NH(Phenethyl) (Disulfide C3-C6)]", "hAPJ Ca^2+ Flux EC50 / µM": 0.871}
{"binder": "ERPRLCHKCPLPF (HELM PEPTIDE1{[Glp].R.P.R.L.C.H.K.C.P.[Nle].P.F}$PEPTIDE1,PEPTIDE1,6:R3-9:R3$$$V2.0; SMILES CCCC[C@H](NC(=O)[C@@H]1CCCN1C(=O)[C@@H]1CSSC[C@H](NC(=O)[C@H](CC(C)C)NC(=O)[C@H](CCCNC(=N)N)NC(=O)[C@@H]2CCCN2C(=O)[C@H](CCCNC(=N)N)NC(=O)[C@@H]2CCC(=O)N2)C(=O)N[C@@H](Cc2c[nH]cn2)C(=O)N[C@@H](CCCCN)C(=O)N1)C(=O)N1CCC[C@H]1C(=O)N[C@@H](Cc1ccccc1)C(=O)O) [Example 5: pE-R-P-R-L-C*-H-K-C*-P-Nle-P-F-OH (Disulfide C6-C9)]", "hAPJ Ca^2+ Flux EC50 / µM": 0.0069}
{"binder": "ERCRLCHKGPLAF (HELM PEPTIDE1{[Glp].R.C.R.L.C.H.K.G.P.[CCCC[C@@H](N[*:1])C(=O)[*:2]].[dA].[dF]}$PEPTIDE1,PEPTIDE1,3:R3-6:R3$$$V2.0; SMILES CCCC[C@@H](NC(=O)[C@@H]1CCCN1C(=O)CNC(=O)[C@H](CCCCN)NC(=O)[C@H](Cc1c[nH]cn1)NC(=O)[C@@H]1CSSC[C@H](NC(=O)[C@H](CCCNC(=N)N)NC(=O)[C@@H]2CCC(=O)N2)C(=O)N[C@@H](CCCNC(=N)N)C(=O)N[C@@H](CC(C)C)C(=O)N1)C(=O)N[C@H](C)C(=O)N[C@H](Cc1ccccc1)C(=O)O) [Example 2: pE-R-C*-R-L-C*-H-K-G-P-(D-Nle)-a-f-OH (Disulfide C3-C6)]", "hAPJ Ca^2+ Flux EC50 / µM": 0.077}
{"binder": "ERCRLCHKGPFAF (HELM PEPTIDE1{[Glp].R.[dC].R.L.C.H.K.G.P.[dF].[dA].[dF]}$PEPTIDE1,PEPTIDE1,3:R3-6:R3$$$V2.0; SMILES CC(C)C[C@@H]1NC(=O)[C@H](CCCNC(=N)N)NC(=O)[C@H](NC(=O)[C@H](CCCNC(=N)N)NC(=O)[C@@H]2CCC(=O)N2)CSSC[C@@H](C(=O)N[C@@H](Cc2c[nH]cn2)C(=O)N[C@@H](CCCCN)C(=O)NCC(=O)N2CCC[C@H]2C(=O)N[C@H](Cc2ccccc2)C(=O)N[C@H](C)C(=O)N[C@H](Cc2ccccc2)C(=O)O)NC1=O) [Example 4: pE-R-c*-R-L-C*-H-K-G-P-f-a-f-OH (Disulfide C3-C6)]", "hAPJ Ca^2+ Flux EC50 / µM": 0.496}

For the next question, use this binder.
-- ask Note down hAPJ Ca^2+ Flux EC50 recorded for ERCRLCHKGPLPF (HELM PEPTIDE1{[Glp].R.C.R.L.C.H.K.G.P.[Nle].P.F}$PEPTIDE1,PEPTIDE1,3:R3-6:R3$$$V2.0; SMILES CCCC[C@H](NC(=O)[C@@H]1CCCN1C(=O)CNC(=O)[C@H](CCCCN)NC(=O)[C@H](Cc1c[nH]cn1)NC(=O)[C@@H]1CSSC[C@H](NC(=O)[C@H](CCCNC(=N)N)NC(=O)[C@@H]2CCC(=O)N2)C(=O)N[C@@H](CCCNC(=N)N)C(=O)N[C@@H](CC(C)C)C(=O)N1)C(=O)N1CCC[C@H]1C(=O)N[C@@H](Cc1ccccc1)C(=O)O) [Example 1: pE-R-C*-R-L-C*-H-K-G-P-Nle-P-F-OH (Disulfide C3-C6)]
-- reply 0.0035
